Overview of reported Activity across a group of compounds:
tested on: 3T3-L1; assay: Cytotoxicity against mouse 3T3L1 cells at 50 uM after 24 hrs by sulforhodamine B assay; format: cell-based; conditions: 3t3-l1, 24 h
RECORDED ENDPOINT: Activity

COMPOUND	EXPERIMENTAL VALUE
COc1c2c(cc3c(=O)c4cc(Cl)ccc4oc13)OC(C)(C)CC2	0 to 25%
O=c1c2ccccc2oc2cc(O)c(O)cc12	0 to 25%
CC(C)=CCOc1ccc2oc3ccccc3c(=O)c2c1OCC=C(C)C	26 to 50%
COc1ccc2oc3ccccc3c(=O)c2c1	51 to 75%
CC1(C)C=Cc2cc3c(=O)c4ccccc4oc3c(O)c2O1	0 to 25%
COc1cc(C=O)c2c(=O)c3ccccc3oc2c1OC	0 to 25%
O=Cc1cc(O)c(O)c2oc3ccccc3c(=O)c12	0 to 25%
COc1c2c(cc3c(=O)c4ccccc4oc13)OC(C)(C)C=C2	26 to 50%
COc1c2c(cc3c(=O)c4cc(C)ccc4oc13)CCC(C)(C)O2	0 to 50%
Cc1c(O)cc2oc3ccccc3c(=O)c2c1O	26 to 50%
COc1cc(/C=C/C(=O)/C=C/c2ccc(OCc3cn(CCO[C@H]4O[C@@H](COC(C)=O)[C@H](OC(C)=O)[C@@H](OC(C)=O)[C@@H]4NC(C)=O)nn3)c(OC)c2)ccc1OCc1cn(CCO[C@@H]2O[C@H](COC(C)=O)[C@@H](OC(C)=O)[C@H](OC(C)=O)[C@@H]2NC(C)=O)nn1	0 to 25%
CC(C)[C@H](CO)NC(=O)COc1ccc2c(=O)c3ccccc3oc2c1	0 to 25%
CCCOc1ccc(NCCN(CC)CC)c2c(=O)c3ccccc3sc12	0 to 100%
COc1c2c(cc3c(=O)c4ccc(O)cc4oc13)CCC(C)(C)O2	0 to 25%
CC(C)[C@@H](CO)NC(=O)COc1ccc2c(=O)c3ccccc3oc2c1	0 to 25%
COc1c(O)cc2oc3cc(O)c(CC=C(C)C)c(O)c3c(=O)c2c1CC=C(C)C [MANGOSTIN]	76 to 100%
C#CCOc1ccc2c(=O)c3ccc(OCC#C)cc3oc2c1	0 to 25%
COc1cc2c(c3oc4ccccc4c(=O)c13)OC(C)(C)C=C2	51 to 75%
CCCOc1ccc(NNC(=O)c2ccncc2)c2c(=O)c3ccccc3sc12	0 to 25%
COC(=O)c1ccccc1Oc1ccc(OC)c(OC)c1	0 to 25%
O=C(COc1ccc2c(=O)c3ccccc3oc2c1)N[C@H](c1ccccc1)[C@@H](O)c1ccccc1	76 to 100%

* * *

Overview of reported Activity across a group of compounds:
system: 3T3-L1; test: Cytotoxicity against mouse 3T3L1 cells at 50 uM after 48 hrs by sulforhodamine B assay; type: cell-based; settings: 3t3-l1, 48 h

COMPOUND	EXPERIMENTAL SYSTEM	Activity
O=c1c2ccccc2oc2ccccc12	3T3-L1	0 to 25%
COc1c(O)cc2oc3cc(O)c(CC=C(C)C)c(O)c3c(=O)c2c1CC=C(C)C	3T3-L1	76 to 100%
O=c1c2ccccc2oc2ccc(O)cc12	3T3-L1	0 to 25%
O=C(O)Cc1cccc2oc3ccccc3c(=O)c12	3T3-L1	26 to 50%
O=Cc1cc(O)c(O)c2oc3ccccc3c(=O)c12	3T3-L1	51 to 75%
O=Cc1c(O)ccc2c(=O)c3ccc(O)c(C=O)c3oc12	3T3-L1	51 to 75%
COc1cccc2c(=O)c3ccccc3oc12	3T3-L1	0 to 25%
O=c1c2ccccc2oc2c(O)c(O)ccc12 [3,4-DIHYDROXYXANTHONE]	3T3-L1	51 to 75%
O=c1c2ccc(O[C@H]3O[C@H](CO)[C@@H](O)[C@@H](O)[C@@H]3O)cc2oc2cc(O[C@@H]3O[C@@H](CO)[C@H](O)C(O)[C@H]3O)ccc12 (some centres undefined)	3T3-L1	26 to 50%

* * *

species on record: Danio rerio; test: Toxicity in zebra fish larvae at 5 uM after 48 hrs; type: organism-based; settings: zebrafish, in vivo
RECORDED ENDPOINT: Activity

>>> print(df.to_string())
                                 smiles_repr  experimental_value
 0  COc1c2c(cc3c(=O)c4cc(C)ccc4oc13)CCC(C)(C)O2            0 to 25%
 1                 O=c1c2ccccc2oc2cc(O)ccc12            0 to 25%
 2  CC(=O)Oc1ccc(C(=O)c2ccc(OC(C)=O)c(OC(C)=O)c2)cc1OC(C)=O            0 to 25%
 3                 O=c1c2ccccc2oc2cccc(O)c12            0 to 25%
 4               COc1ccc2c(=O)c3ccccc3oc2c1O            0 to 25%
 5  CCCOc1ccc(NCCN(CC)CC)c2c(=O)c3ccccc3sc12          76 to 100%
 6  COc1cccc2c(=O)c3cc4c(c(O)c3oc12)OC(C)(C)CC4            0 to 25%
 7          C=Cc1cc2c(=O)c3ccccc3oc2c(OC)c1O            0 to 25%
 8  COc1c2c(cc3c(=O)c4ccc(O)cc4oc13)CCC(C)(C)O2            0 to 25%
 9  COc1cc2c(c3oc4ccccc4c(=O)c13)OC(C)(C)C=C2          76 to 100%
10                COc1cccc2c(=O)c3ccccc3oc12            0 to 25%
11     COc1cc(C(Br)Br)c2c(=O)c3ccccc3oc2c1OC            0 to 25%

* * *

test system: 3T3-L1; assay: Cytotoxicity against mouse 3T3L1 cells at 50 uM after 24 hrs by sulforhodamine B assay; type: cell-based; details: 3t3-l1, 24 h
RECORDED ENDPOINT: Activity

In [3]: df
Out[3]:
                                 smiles_repr  recorded_endpoint  experimental_value
 0  COc1ccc2c(=O)c3cc(C(=O)N[C@@H](CO)c4ccccc4)ccc3oc2c1           Activity            0 to 25%
 1                COc1cccc2oc3ccccc3c(=O)c12           Activity            0 to 25%
 2  CCCOc1ccc(NCCN(CC)CC)c2c(=O)c3ccccc3sc12.Cl           Activity          76 to 100%
 3              COc1ccc2c(=O)c3ccccc3oc2c1OC           Activity            0 to 25%
 4  C#CCOc1ccc(/C=C/C(=O)/C=C/c2ccc(OCC#C)c(OC)c2)cc1OC           Activity           26 to 50%
 5  COc1cc(/C=C/C(=O)/C=C/c2ccc(O)c(OC)c2)ccc1O           Activity            0 to 25%
 6    CC1(C)C=Cc2cc(O)c3c(=O)c4ccccc4oc3c2O1           Activity            0 to 25%
 7          COc1cc(C=O)c2c(=O)c3ccccc3oc2c1O           Activity            0 to 25%
 8          CCCOc1ccc(OC)c2c(=O)c3ccccc3sc12           Activity            0 to 25%
 9  COc1cccc2c(=O)c3cc4c(c(O)c3oc12)OC(C)(C)CC4           Activity           51 to 75%
10  COc1cc2c(c3oc4ccccc4c(=O)c13)OC(C)(C)CC2           Activity            0 to 25%
11              COc1cc2oc3ccccc3c(=O)c2cc1OC           Activity            0 to 25%

* * *

Overview of reported Activity across a group of compounds:
system: 3T3-L1; test: Cytotoxicity against mouse 3T3L1 cells at 50 uM after 48 hrs by sulforhodamine B assay; assay type: cell-based; conditions: 3t3-l1, 48 h
RECORDED ENDPOINT: Activity

>>> df
                                smiles_repr  experimental_value
0  CC(=O)Oc1ccc(C(=O)c2ccc(OC(C)=O)c(OC(C)=O)c2)cc1OC(C)=O           51 to 75%
1  O=C(COc1ccc2c(=O)c3ccccc3oc2c1)N[C@H](c1ccccc1)[C@@H](O)c1ccccc1            0 to 25%
2  O=C(COc1ccc2c(=O)c3ccccc3oc2c1)N[C@@H](c1ccccc1)[C@H](O)c1ccccc1            0 to 25%
3  COc1ccc2c(=O)c3cc(C(=O)N[C@H](CO)c4ccccc4)ccc3oc2c1           26 to 50%
4    CC1(C)C=Cc2cc(O)c3c(=O)c4ccccc4oc3c2O1            0 to 25%
